Molecular target: T1, human ferroportin (SLC40A1) fused in frame with GFP, stably expressed in HEK293 cells (human, UniProt Q9NP59 1-571)
T1 sequence (looked up): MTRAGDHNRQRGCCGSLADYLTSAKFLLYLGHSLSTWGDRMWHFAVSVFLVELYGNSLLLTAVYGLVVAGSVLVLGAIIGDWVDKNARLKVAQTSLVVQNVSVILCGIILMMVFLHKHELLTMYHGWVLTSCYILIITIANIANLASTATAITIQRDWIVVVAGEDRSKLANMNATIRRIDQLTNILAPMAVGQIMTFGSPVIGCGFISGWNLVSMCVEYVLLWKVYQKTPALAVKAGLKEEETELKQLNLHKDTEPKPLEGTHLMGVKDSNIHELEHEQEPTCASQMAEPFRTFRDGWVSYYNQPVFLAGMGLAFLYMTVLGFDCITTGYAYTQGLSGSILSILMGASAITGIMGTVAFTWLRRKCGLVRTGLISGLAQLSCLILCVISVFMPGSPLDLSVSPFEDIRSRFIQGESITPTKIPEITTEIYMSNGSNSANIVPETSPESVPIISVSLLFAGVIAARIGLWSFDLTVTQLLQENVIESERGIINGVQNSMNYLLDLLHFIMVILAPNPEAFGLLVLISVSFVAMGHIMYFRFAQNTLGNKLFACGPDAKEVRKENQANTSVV
Assay: cell-based or functional assay
Positions of bridges follow the written chain, without caps; N, C: chain ends. Non-standard residues stand in square brackets, D forms with d. Groups on a side chain read outwards from the residue. *: point of attachment. PEG12 = NCCOCCOCCOCCOCCOCCOCCOCCOCCOCCOCCOCCOCCC(=O)O; Dip = N[C@H](C(=O)O)C(c1ccccc1)c1ccccc1; Palmitoyl = CCCCCCCCCCCCCCCC(=O)*; β3hF = N[C@H](CC(=O)O)Cc1ccccc1; Isovaleryl = CC(C)CC(=O)*
Metric: FPN EC50 (nM)
Numbers only, in nM.

Some solved entries appear below for comparison.
{"columns": ["Binder", "Observed Result"],
 "data": [
  ["XETHXPCIXXXC (Isovaleric Acid-E-T-H-[Dpa]-P-C-I-[Lys(1PEG2_1PEG2_Dap_C18_Diacid)]-[bhPhe]-[(D)Lys]-C-NH2) [Compound 278]", 4.3],
  ["XETXXPCIXXXC (Isovaleric Acid-E-T-[His_1Me]-[Dpa]-P-C-I-[Lys(PEG12_Palm)]-[bhPhe]-[(D)Lys]-C-NH2) [Compound 202]", 25.6],
  ["XXTHXPCIXXXC (Isovaleric Acid-[Glu_OMe]-T-H-[Dpa]-P-C-I-[Lys(1PEG2_1PEG2_Dap_C18_Diacid)]-[bhPhe]-[(D)Lys]-C-NH2) [Compound 279]", 11.4],
  ["XETHXPCIXXXC (Isovaleric Acid-E-T-H-[Dpa]-P-C-I-[Lys(1PEG2_1PEG2_Ahx_C18_Diacid)]-[bhPhe]-[(D)Lys(PEG40KB-C-NH2)) [Compound 297]", 1360]
]}

--- query ---
Please indicate FPN EC50 recorded for Isovaleryl-ETH[Dip]PCIK(PEG40KB)[β3hF]K([PEG12-Palmitoyl])RC-NH2 (disulfide 6-12 (inferred)) [Compound 296]
1080
